// provenance: the supplement of paper PMC6757056

B1: library; a variant is named by its letters at N, in order (parent)
chain: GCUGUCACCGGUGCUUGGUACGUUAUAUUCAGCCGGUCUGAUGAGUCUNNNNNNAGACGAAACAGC

# Variants of: B1
# Protocol Description: FACS-Seq fitted mean relative fluorescence mCherry/BFP without ligand (log10 relative fluorescence); HEK293T overexpressing SLC46A1; higher = higher reporter protein expression
# Experimental Parameters: without (6R,S)-folinic acid; ligand present: no
Parameter: FACS-Seq fitted mean (log10)
Write no unit; give the number alone.

In: Supply FACS-Seq fitted mean (log10) value. Item: UAGAUG
Out: 0.3

In: Annotate the variant UGUUAG with its measured FACS-Seq fitted mean (log10).
Out: 0.447

In: Identify measured FACS-Seq fitted mean (log10) associated with CUGCCC
Out: 0.494

In: Tell us which FACS-Seq fitted mean (log10) value is on record for UCAACU
Out: 0.46

In: Given the variant UCGAGU , write its reported FACS-Seq fitted mean (log10).
Out: 0.379

In: Dear colleague, please send me the reported FACS-Seq fitted mean (log10) for CCAGCC when you can.
Out: 0.159

In: Supply reported FACS-Seq fitted mean (log10) belonging to this variant: CCAAAA
Out: 0.502

In: Return reported FACS-Seq fitted mean (log10). Input variant: CAUUUU
Out: 0.383

In: Respond only with FACS-Seq fitted mean (log10) recorded for GCUGGU
Out: 0.447

In: Report FACS-Seq fitted mean (log10), nothing else, for this variant: CACAAA
Out: 0.458

In: Dear colleague, please send me the reported FACS-Seq fitted mean (log10) for ACACGA when you can.
Out: 0.206

In: Provide one value: measured FACS-Seq fitted mean (log10) of AGGAGG
Out: 0.585

In: Output measured FACS-Seq fitted mean (log10) for this item: GCUGUU
Out: 0.356

In: Note FACS-Seq fitted mean (log10) for the variant shown: UCAGGU
Out: 0.531

In: Give FACS-Seq fitted mean (log10) for UGCGCU
Out: 0.293

In: // fetch FACS-Seq fitted mean (log10) given entry UCUCGA
Out: 0.597

In: Tell me FACS-Seq fitted mean (log10) reported for UAACAG
Out: 0.325

In: Kindly indicate its recorded FACS-Seq fitted mean (log10). Item: GAAUUA
Out: 0.508

In: Hello, please tell me recorded FACS-Seq fitted mean (log10) for this one: CACUGG
Out: 0.801

In: Using known records, supply FACS-Seq fitted mean (log10) for AAAUCC
Out: 0.504

In: Return FACS-Seq fitted mean (log10) (reported value) for this variant: GAUACG
Out: 0.356

In: Tell us which FACS-Seq fitted mean (log10) value is on record for UCAUAA
Out: 0.276

In: Note FACS-Seq fitted mean (log10) for the variant shown: GCCAGG
Out: 0.43

In: Return FACS-Seq fitted mean (log10) for the following variant: CGAAUA
Out: 0.314

In: Please report FACS-Seq fitted mean (log10) for the following variant: GGAGGC
Out: -0.315

In: Supply reported FACS-Seq fitted mean (log10) belonging to this variant: AUCUGG
Out: 0.349

In: Fill in reported FACS-Seq fitted mean (log10) for this entry: UAGGAU
Out: 0.37

In: Supply measured FACS-Seq fitted mean (log10) of GUUGUA in your reply.
Out: 0.281

In: Give recorded FACS-Seq fitted mean (log10). GCGUAC
Out: 0.258

In: Report FACS-Seq fitted mean (log10) for CGCCAG
Out: 0.509
